Provide the reported self-cleavage of each item.
B1: HDV Ribozyme (parent)
chain: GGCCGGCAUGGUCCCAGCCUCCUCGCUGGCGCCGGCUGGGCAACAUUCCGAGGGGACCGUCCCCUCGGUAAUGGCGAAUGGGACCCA

Variants of: B1
Assay: self-cleavage, relative activity (ratio to wild type); higher = more cleavage; co-transcriptional
I only need the number, thanks.

self-cleavage in this record for C24A A78G : 0.492

self-cleavage in this record for C26G G82C : 0.499

self-cleavage in this record for A71C C84A : 0.511

self-cleavage in this record for U20G G55C : 0.0978

self-cleavage in this record for C75G C84U : 0.0978

self-cleavage in this record for U9A A71G : 0.506
